- Tested on: 855422-203-R-J1-PDC complex spheroids, viability;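 further: spheroids exposed to drugs for seven days before readout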
- assay-name: Anticancer human tumor 855422-203-R-J1-PDC patient-derived bladder carcinoma cell line growth inhibition [CLK]
- condition-summary: second compound 0.316 µM; first compound 3.16 µM; stronger effect = lower value
hey, just use condition met if measured viability, T/C is less than 10%, otherwise condition not met

Here are 4 compounds together with their reported answers.
Lookup: For this compound, is viability, T/C lower than 10%? Nc1ccn(C2OC(CO)C(O)C2(F)F)c(=O)n1 (stereo not given) + CN1CCN(c2cc(C(=O)Nc3cc4cc(-c5cnn(C)c5)ccc4cn3)ccn2)CC1
Found: condition met

Lookup: Lookup CC(CO)NC(=O)c1cc(-c2ccc(Cl)cc2)nn(-c2cnn(C)c2)c1=O (stereo not given) + CN1CCN(c2cc(C(=O)Nc3cc4cc(-c5cnn(C)c5)ccc4cn3)ccn2)CC1
Found: condition not met

Lookup: Let us now turn to CC(CO)NC(=O)c1cc(-c2ccc(Cl)cc2)nn(-c2cnn(C)c2)c1=O (stereo not given) + CNC(=O)c1ccc(Nc2nc(OC3CCCC3)c3c(-c4ccc5nc(C)oc5c4)c[nH]c3n2)c(OC)c1
Found: condition not met

Lookup: Item: C#Cc1c(F)ccc2cc(O)cc(-c3ncc4c(N5CC6CCC(C5)N6)nc(OCC56CCCN5CC(F)C6)nc4c3F)c12 (stereo not given) + CN1CCN(c2cc(C(=O)Nc3cc4cc(-c5cnn(C)c5)ccc4cn3)ccn2)CC1
Found: condition not met

Below: the item to evaluate.
Lookup: Is 10% strictly greater than the compound's reported viability, T/C? compound: CC(=O)O[C@H]1C(=O)[C@@]2(C)[C@H]([C@H](OC(=O)c3ccccc3)[C@]3(O)C[C@H](OC(=O)[C@H](O)[C@@H](NC(=O)c4ccccc4)c4ccccc4)C(C)=C1C3(C)C)[C@]1(OC(C)=O)CO[C@@H]1C[C@@H]2O + CNC(=O)c1ccc(Nc2nc(OC3CCCC3)c3c(-c4ccc5nc(C)oc5c4)c[nH]c3n2)c(OC)c1
Found: condition not met
